target: RSV F protein of recombinant mKate-RSV, subtype B (18537) (Respiratory syncytial virus subtype B …, UniProt P13843 26-574); assay: cell-based or functional assay
endpoint name: Neut IC50 subtype B

binder	recorded value
ADI-14513 (antibody, V domains shown, full-length IgG (yeast-expressed); also called Antibody Number 74; Ab# 74) VH: QVQLVQSGSEVKRPGSSVKVSCKASGVALTTVAVNWVRQVPGQGPEWIGGILIGFGKVRQAQKFENRVTFTADASRNTAYMELSGLRSEDTAVYYCAIIDPQDCTRASCFWVNWLAPWGHGTLVTVSS VL: DIRVTQSPGTLTLSPGERASLSCRASESILNGNLAWYQQKPGQAPRLLIYAASSRATDIPDRFSGSGSGTDFTLTISRLEPQDFAVYYCQQYGSAPITFGQGTRLEIK	2.2 µg/mL
ADI-14477 (antibody, V domains shown, full-length IgG (yeast-expressed); also called Antibody Number 39; Ab# 39) VH: EVQLVESGPTLVKPTQTLTLTCSLSGFSLTTRGVGVGWIRQPPGKAPECLGFVYWDDDNRYSPSLRGRLTISKDTSKNQVVLTLTNMDPLDTATYYCVHSDLYDRGGYYLFYFDDWGQGTLVTVSS VL: DIQVTQSPSSLSASVGDRVTITCRASQPIASYLNWYQQKPGQAPKLLIYAASMLQSGAPSKFSGRGSGTDFTLTITTLQPEDFATYYCQQSYTFPYTFGQGTKVEIK	> 10 µg/mL
